Experimental Details: In vitro stability in human plasma at 37° C. (enantiomerization, D/H exchange, degradation)
Format: in vitro ADME
Setup Conditions: human, plasma, Calculated half-life t1/2, degradation d
Experimental: (+)- and (−)-3-(5-Amino-2-methyl-4-oxoquinazolin-3(4H)-yl)-piperidine-2,6-dione and rac-3-(5-amino-2-methyl-4-oxoquinazolin-3(4H)-yl)-(3-^2H)-piperidine-2,6-dione (87% deuterium content at the C3-position and no detectable deuterium at the C5-position, 50:50 racemic mixture of (+)- and (−)-deuterated enantiomers) were incubated in CD-1 mouse plasma (K3EDTA as anticoagulant) or human plasma (K3EDTA as anticoagulant) at 37° C. in duplicates. […] Human and mouse plasma data were analyzed independently. […]
Endpoint: half-life (h)
One number for each entry, in h.

The compound identified as Cc1nc2cccc(N)c2c(=O)n1C1CCC(=O)NC1=O (single isomer, unassigned; (-)) [h−, reference compound] registered its half-life at 8.2
